# System: U-251
# Method: NCI tumour cell line growth inhibition, 48 h
The source made the active and inactive calls. Rule as the data show it: active = GI50 up to about 1.1 µM and inactive = higher.
Classes used: 1.0 (active), 0.0 (inactive)

Compound | Category
Cc1ccc(-c2cc(-c3ccc(Cl)cc3)nc(/N=C3\C(=O)N(CN(C)C)c4ccccc43)n2)cc1 | 0.0
O=c1c2ccccc2nc(-c2ccccc2)n1O | 0.0
COc1cc(CNc2ccc(C)cc2)cc(OC)c1OC | 1.0
Nc1nc(Nc2ccc(Cl)cc2)sc1C(=O)c1cccs1 | 0.0
COP(=O)(OC)[C@@](O)(c1ccccc1)[C@@H](O)[C@H](O)c1ccccc1 | 0.0
COc1cc2c(cc1OC)C1CCc3ccccc3CN1CC2 (stereo not given) | 0.0
C=C(CN1CC2C[C@](C(=O)OC)(c3cc4ccccc4[nH]3)C1C(OC)C2OC)S(=O)(=O)c1ccccc1 (stereo not given in full) | 0.0
CN1C(=O)CN=C(c2ccccc2F)c2cc(N=C=S)ccc21 | 0.0
O=C(CN1C(=O)c2ccccc2C1=O)OC1C=CCCC1 (stereo not given) | 0.0
C[C@@H]1C[C@H]2[C@@H]3CCC4=CC(=O)C=C[C@]4(C)[C@@]3(Cl)[C@@H](Cl)C[C@]2(C)[C@@]1(O)C(=O)COP(=O)(O)O | 0.0

---

# Test system: EKVX
# Method: NCI tumour cell line growth inhibition, 48 h
Active and inactive are the calls of the source. Cut-off read from the data, not from the text of the source: active = GI50 up to about 1.1 µM and inactive = higher.
Labels: y (active), n (inactive)

Molecule | Category
O=C(CC1(O)C(=O)Nc2c(Cl)ccc(Cl)c21)c1ccc(F)cc1 (stereo not given) | n
NCCc1ccc2oc3cc(=O)c4ccccc4c-3nc2c1 | n
Cc1nc2c(nc1C)-c1c(c3c(n1C)C(=O)CCC3)C(=O)C2=O | y
Cc1ccc(C(=O)C#Cc2cnc(O)nc2O)cc1 | n
CCN1c2ccccc2C(C(SC)S(=O)(=O)c2ccc(C)cc2)c2c1[nH]c(=O)n(C)c2=O (stereo not given) | n
COc1cccc2nc3c(C(=O)NCCN(C)C)cccc3cc12 | n
CC(C)C12CCC3(CCC4C(C)(C(=O)O)CCCC4(C)C3C1)C(CN)C2 (stereo not given) | n
CCC12C=CCN3CCC4(c5cc(C(c6ccc(OC)cc6)C6Cc7ccccc7N6)c(OC)cc5N(C)C4C(O)(C(=O)OC)C1O)C32 (stereo not given) | n
Clc1c(Cl)c2c(Cl)c(Cl)c1C[PH](c1ccccc1)(c1ccccc1)CC[PH](c1ccccc1)(c1ccccc1)Cc1c(Cl)c(Cl)c(c(Cl)c1Cl)C[PH](c1ccccc1)(c1ccccc1)CC[PH](c1ccccc1)(c1ccccc1)C2 | n
CN1CCN(c2ccc([N+](=O)[O-])c3no[n+]([O-])c23)CC1 | n

---

What follows is a record of GI50 for HCT-15.

Molecule | GI50
CCOC(=O)/C(=C\NCC(O)c1ccccc1)c1nc2ccccc2[nH]1 (centres undefined) | 21.6 µM
CC1(C)CCC(=O)NC1CC(=O)CC1NC(=O)CCC1(C)C (centres undefined) | > 100 µM
Cn1c2ccccc2n2c3ncccc3/c(=N/CCCC(=O)O)c(C#N)c12 | > 100 µM
CCC12C=CCN3CCC4(c5cc(C(c6ccc(OC)cc6)C6Cc7ccccc7N6)c(OC)cc5N(C)C4C(O)(C(=O)OC)C1O)C32 (centres undefined) | 22 µM
CCC12C=CCN(CCc3c([nH]c4ccccc34)/C=C\1)C2 (centres undefined) | > 100 µM
CC(=O)OCC1=C(C)C(OC(=O)C(OC(C)=O)[C@@H](NC(=O)c2ccccc2)c2ccccc2)CCC1(C)C (some centres undefined) | > 100 µM
O=C(/C=C/c1ccc(O)c(O)c1)NC(COC(=O)/C=C/c1ccc(O)c(O)c1)C(=O)O (centres undefined) | > 100 µM
CCc1oc2ccccc2c1C(=O)c1cc(Br)c(O)c(Br)c1 [BENZBROMARONE] | 27.6 µM
CN(C(=O)c1ccco1)C(=S)N1CCN(c2ccccc2)CC1 | > 100 µM
